FYI, the data here is from patent US6914045B2.

Test system: Staphylococcus sp.
Experiment: in vitro antibacterial evaluation, MIC by broth dilution
Format: cell-based
Setup conditions: strain GC 3051; broth dilution, 18 hours at 35° C.
Would you mind telling me the reported MIC Staphylococcus aureus (GC 3051) of each entry?
Could you give me the number in µg/mL? Just the number is fine.

Request: Consider the compound CC(c1ccccc1)C1NC(=O)CNC(=O)C(CO)NC(=O)C(C(O)C2CNC(=N)N2C2OC(CO)C(O)C(O)C2O)NC(=O)C(C(O)C2CNC(=N)N2)NC(=O)C(Cc2ccc3oc(-c4cccc(F)c4)nc3c2)NC1=O (centres unmarked) and give its measured MIC Staphylococcus aureus (GC 3051).
Response: 16

Request: Field request: MIC Staphylococcus aureus (GC 3051) | item: CC(C)=CCN1CC(C(O)C2NC(=O)C(C(O)C3CNC(=N)N3)NC(=O)C(Cc3ccc(OC4OC(CO)C(OC5OC6COC7(OC6C(O)C5O)C5CC6CC(C5)CC7C6)C(O)C4O)cc3)NC(=O)C(C(C)c3ccccc3)NC(=O)CNC(=O)C(CO)NC2=O)N(C2OC(CO)C(O)C(O)C2O)C1=N (centres unmarked)
Response: 4

Request: Give its MIC Staphylococcus aureus (GC 3051) value. Item: N=C1NCC(C(O)C2NC(=O)C(Cc3ccc(OC4OC(CO)C(OC5OC6COC7(OC6C6OC8(OC56)C5CC6CC(C5)CC8C6)C5CC6CC(C5)CC7C6)C(O)C4O)cc3)NC(=O)C(CC3CCCCC3)NC(=O)CNC(=O)C(CO)NC(=O)C(C(O)C3CNC(=N)N3C3OC(CO)C(O)C(O)C3O)NC2=O)N1 (centres unmarked) [Example 106b]
Response: 8

Request: Reported MIC Staphylococcus aureus (GC 3051) for CC(c1ccccc1)C1NC(=O)CNC(=O)C(CO)NC(=O)C(C(O)C2CNC(=N)N2C2OC(CO)C(O)C(O)C2O)NC(=O)C(C(O)C2CNC(=N)N2)NC(=O)C(Cc2ccc(OC3OC(CO)C(OC4OC(CO)C(O)C5OC(c6ccccc6)OC45)C(O)C3O)cc2)NC1=O (single isomer, unassigned) [Example 104b] : what is it?
Response: 0.5
